The following compounds are shown together with reported Recovery of filapixant and metabolite formation, Hepatocytes values.
Test: Biotransformation of [3H]filapixant in human hepatocytes
Type: in vitro ADME
Conditions: [3H]filapixant 1 µM, 4 h of incubation, range in three batches

Example entries begin here.
STRUCTURE_STRING: Cc1cnc(-c2cc(OC[C@H]3CN(C)C(=O)CO3)cc(C(=O)N[C@H](C)c3cnc(C(F)(F)F)nc3)c2)s1
REPORTED_MEASUREMENT: 1.0–7.5 % of radioactivity
//
STRUCTURE_STRING: C[C@@H](NC(=O)c1cc(OC[C@H]2CN(C)CCO2)cc(-c2ncc(C(=O)O)s2)c1)c1cnc(C(F)(F)F)nc1
REPORTED_MEASUREMENT: 0–0.2 % of radioactivity
//
STRUCTURE_STRING: CNC[C@@H](O)COc1cc(C(=O)N[C@H](C)c2cnc(C(F)(F)F)nc2)cc(-c2ncc(C)s2)c1
REPORTED_MEASUREMENT: 0–1.7 % of radioactivity
//
STRUCTURE_STRING: C[C@@H](NC(=O)c1cc(OC[C@H]2CN(C)CCO2)cc(-c2ncc(CO)s2)c1)c1cnc(C(F)(F)F)nc1
REPORTED_MEASUREMENT: 0.4–0.8 % of radioactivity

Attention now shifts to the item below.
Query (compound): Cc1cnc(-c2cc(OC[C@H](O)CN)cc(C(=O)N[C@H](C)c3cnc(C(F)(F)F)nc3)c2)s1 ; field requested: Recovery of filapixant and metabolite formation, Hepatocytes 0–0.3 % of radioactivity

* * *

# key: entry, value: Remaining drug and formation of metabolites, Peak Area
Biological target: CYP1A1 (Homo sapiens)
Construct: purchased
Sequence (P04798 whole entry): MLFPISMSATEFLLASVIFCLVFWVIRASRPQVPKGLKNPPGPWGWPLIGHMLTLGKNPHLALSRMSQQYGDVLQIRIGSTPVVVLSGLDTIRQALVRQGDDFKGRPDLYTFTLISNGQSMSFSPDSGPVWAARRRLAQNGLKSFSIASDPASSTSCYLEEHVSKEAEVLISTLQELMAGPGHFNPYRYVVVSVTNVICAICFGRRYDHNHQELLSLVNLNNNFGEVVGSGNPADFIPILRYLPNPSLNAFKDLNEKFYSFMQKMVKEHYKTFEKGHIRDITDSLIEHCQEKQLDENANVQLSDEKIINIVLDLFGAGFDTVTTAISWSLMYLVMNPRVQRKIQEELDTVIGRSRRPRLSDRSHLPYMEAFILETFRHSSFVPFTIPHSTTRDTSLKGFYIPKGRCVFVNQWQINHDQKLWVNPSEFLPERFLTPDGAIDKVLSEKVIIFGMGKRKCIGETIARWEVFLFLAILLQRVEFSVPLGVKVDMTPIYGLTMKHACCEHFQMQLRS
Assay: Incubation of filapixant with human recombinant CYP1A1 (Supersomes)
Assay type: in vitro ADME
Details: 1 µM [3H]filapixant, CYP1A1, 60 min

MOLECULE: Cc1cnc(-c2cc(OC[C@H]3CN(C)C(=O)CO3)cc(C(=O)N[C@H](C)c3cnc(C(F)(F)F)nc3)c2)s1 [M-4]
REPORTED_MEASUREMENT: 6.5 % of Radioactivity

I am curious: what Remaining drug and formation of metabolites, Peak Area value has been reported for Cc1cnc(-c2cc(O)cc(C(=O)N[C@H](C)c3cnc(C(F)(F)F)nc3)c2)s1 [M-6] ? 0.5 % of Radioactivity

Try the molecule C[C@@H](NC(=O)c1cc(OC[C@H]2CN(C)CCO2)cc(-c2ncc(CO)s2)c1)c1cnc(C(F)(F)F)nc1 [M-3] 2.9 % of Radioactivity

Also CNC[C@@H](O)COc1cc(C(=O)N[C@H](C)c2cnc(C(F)(F)F)nc2)cc(-c2ncc(C)s2)c1 [M-8] ? 0.7 % of Radioactivity
